Hello, the source for this data is paper PMC9145622, in case you need it.

molecules and their reported Ki
# system.name: hM1 (Homo sapiens, UniProt P11229)
# protocol.summary: Competitive [3H]NMS radioligand binding, CHO-K1 membranes expressing hM1
# settings: [3H]NMS, CHO-hM1 cell membrane preparations; read-out: Affinity: Ki ± SD hM1

molecule	system.name	Ki
CN1CCC=C(C(=O)OCc2ccc(CO)cc2)C1 [Compound 8c]	hM1 (Homo sapiens, UniProt P11229)	525 nM
CN1CCC=C(C(=O)OC(c2ccccc2)c2cccc(CO)c2)C1 (stereo not drawn) [Compound 10b]	hM1 (Homo sapiens, UniProt P11229)	12.5 nM
CN1CCC=C(C(=O)OC(c2ccccc2)c2cccc(O)c2)C1 (stereo not drawn) [Compound 17b]	hM1 (Homo sapiens, UniProt P11229)	5.5 nM
CN1CCC=C(C(=O)OC(c2ccccc2)c2ccc(CO)cc2)C1 (stereo not drawn) [Compound 10c]	hM1 (Homo sapiens, UniProt P11229)	74 nM
CN1CCC=C(C(=O)OCC(O)(c2ccccc2)c2ccccc2)C1 [Compound 25]	hM1 (Homo sapiens, UniProt P11229)	231 nM
CN1CCC=C(C(=O)OCc2cccc(O)c2)C1 [Compound 18b]	hM1 (Homo sapiens, UniProt P11229)	259 nM

====

# system.name: hM4 (Homo sapiens)
# Sequence (P08173 whole entry): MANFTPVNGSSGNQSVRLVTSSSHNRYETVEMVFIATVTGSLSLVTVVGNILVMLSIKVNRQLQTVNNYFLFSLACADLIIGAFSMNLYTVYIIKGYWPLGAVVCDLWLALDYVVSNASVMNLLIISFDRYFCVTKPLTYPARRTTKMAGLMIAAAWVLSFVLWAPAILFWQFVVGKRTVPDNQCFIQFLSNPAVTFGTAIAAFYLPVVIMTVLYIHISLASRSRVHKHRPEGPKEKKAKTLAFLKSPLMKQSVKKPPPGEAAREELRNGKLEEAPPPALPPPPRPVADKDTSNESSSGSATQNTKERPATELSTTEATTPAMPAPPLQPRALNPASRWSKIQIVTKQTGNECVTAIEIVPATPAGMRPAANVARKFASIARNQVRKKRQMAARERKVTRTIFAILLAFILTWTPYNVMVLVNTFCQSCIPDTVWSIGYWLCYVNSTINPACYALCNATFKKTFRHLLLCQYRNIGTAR
# protocol.summary: Competitive [3H]NMS radioligand binding, CHO-K1 membranes expressing hM4
# settings: displacement of [3H]NMS, single ligand concentration corresponding to a Ki value of 1 µM (Cheng-Prusoff)

compound	system.name	measurement.units	Displacement ± SD hM4
CN1CCC=C(C(=O)OCc2ccccc2CO)C1	hM4 (Homo sapiens)	%	56
CN1CCC=C(C(=O)OCc2cccc(CO)c2)C1	hM4 (Homo sapiens)	%	22
CN1CCC=C(C(=O)Oc2ccccc2-c2ccccc2O)C1	hM4 (Homo sapiens)	%	46
CN1CCC=C(C(=O)OC(CO)c2ccccc2)C1 (stereo not shown)	hM4 (Homo sapiens)	%	51

====

# system.name: hM1 (Homo sapiens)
# Sequence (P11229 1-460): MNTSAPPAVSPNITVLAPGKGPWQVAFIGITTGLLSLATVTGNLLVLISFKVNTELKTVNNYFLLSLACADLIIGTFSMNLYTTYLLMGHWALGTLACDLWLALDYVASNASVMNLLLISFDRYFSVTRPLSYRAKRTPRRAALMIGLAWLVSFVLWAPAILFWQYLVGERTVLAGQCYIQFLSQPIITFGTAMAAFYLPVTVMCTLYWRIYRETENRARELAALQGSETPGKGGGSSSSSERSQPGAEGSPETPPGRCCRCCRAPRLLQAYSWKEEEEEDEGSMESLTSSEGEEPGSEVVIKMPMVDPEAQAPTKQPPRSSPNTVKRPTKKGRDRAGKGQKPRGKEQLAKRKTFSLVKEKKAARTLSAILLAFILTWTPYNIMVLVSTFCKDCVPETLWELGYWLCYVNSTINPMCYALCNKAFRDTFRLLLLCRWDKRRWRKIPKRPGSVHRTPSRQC
# protocol.summary: Competitive [3H]NMS radioligand binding, CHO-K1 membranes expressing hM1
# settings: ratio of the Ki values hM2/hM1
readout.kind: x-Fold Selectivity for hM1 vs. hM2 (x-fold)

compound	relation.symbol	data.value
CN1CCC=C(C(=O)OCC(O)(c2ccccc2)c2ccccc2)C1	>	4.3
CN1CCC=C(C(=O)OCc2ccc(CO)cc2)C1	>	1.9
CN1CCC=C(C(=O)OC(c2ccccc2)c2ccccc2)C1	=	35.5
CN1CCC=C(C(=O)OC(c2ccccc2)c2ccc(CO)cc2)C1 (stereo not shown) [Compound 10c]	=	13.2
